Target: RARγ (Homo sapiens)
Sequence (P13631 185-419 limits assumed): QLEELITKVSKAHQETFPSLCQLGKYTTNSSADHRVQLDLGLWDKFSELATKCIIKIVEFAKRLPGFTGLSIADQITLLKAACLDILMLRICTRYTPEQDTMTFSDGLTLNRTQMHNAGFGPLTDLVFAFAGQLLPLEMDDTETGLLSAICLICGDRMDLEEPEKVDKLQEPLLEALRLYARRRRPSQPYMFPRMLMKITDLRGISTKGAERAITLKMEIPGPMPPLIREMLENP
Experiment: chimeric receptor transactivation assay
Type: cell-based
Settings: value in parentheses
measurement label: RAR (EFFICACY) γ

[[record]]
compound = "CN(C1CC1)C1CCC(C)(C)c2cc(C#Cc3ccc(C(=O)O)c(F)c3)ccc21 (stereo not shown)"
measurement_label = "RAR (EFFICACY) γ"
readout_value = "(9)"

[[record]]
compound = "CCCN(CCC)C1(c2ccc(C#Cc3ccc(C(=O)O)cc3)cc2)CC1"
measurement_label = "RAR (EFFICACY) γ"
readout_value = "(42)"

[[record]]
compound = "CCCNC1(c2ccc(C#Cc3ccc(C(=O)O)cc3)cc2)CC1"
measurement_label = "RAR (EFFICACY) γ"
readout_value = "(10)"

[[record]]
compound = "CC(C)OC1(c2ccc(C#Cc3ccc(C(=O)O)cc3)cc2)CC1"
measurement_label = "RAR (EFFICACY) γ"
readout_value = "(24)"

[[record]]
compound = "CC1(C)CC2(CC2)Oc2ccc(C#Cc3ccc(C(=O)O)cc3)cc21"
measurement_label = "RAR (EFFICACY) γ"
readout_value = "(140)"

[[record]]
compound = "CC1(C)CCC(=O)c2ccc(C#Cc3ccc(C(=O)O)c(F)c3)cc21"
measurement_label = "RAR (EFFICACY) γ"
readout_value = "(94)"

[[record]]
compound = "CCc1cc(C#Cc2ccc(C(=O)O)cc2)ccc1C1(OCc2ccccc2)CC1"
measurement_label = "RAR (EFFICACY) γ"
readout_value = "(55)"

[[record]]
compound = "Cc1cc(C#Cc2ccc(C(=O)O)cc2)ccc1C1(OC(C)C)CC1"
measurement_label = "RAR (EFFICACY) γ"
readout_value = "(65)"

[[record]]
compound = "CN(C1CC1)C1CCC(C)(C)c2cc(C#Cc3ccc(C(=O)O)cc3)ccc21 (stereo not shown)"
measurement_label = "RAR (EFFICACY) γ"
readout_value = "(52)"

[[record]]
compound = "Cc1cc(C#Cc2ccc(C(=O)O)cc2)ccc1C1(OCc2ccccc2)CC1"
measurement_label = "RAR (EFFICACY) γ"
readout_value = "(67)"

[[record]]
compound = "CC1(C)CC2(CC2)Oc2ccc(C#Cc3ccc(C(=O)O)c(F)c3)cc21"
measurement_label = "RAR (EFFICACY) γ"
readout_value = "(116)"

[[record]]
compound = "COC1(c2ccc(C#Cc3ccc(C(=O)O)cc3)cc2)CC1"
measurement_label = "RAR (EFFICACY) γ"
readout_value = "(31)"

[[record]]
compound = "Cc1cc(C#Cc2ccc(C(=O)O)cc2)ccc1C1(OCC(C)(C)C)CC1"
measurement_label = "RAR (EFFICACY) γ"
readout_value = "(46)"


----------
Target: RARβ (Homo sapiens, UniProt P10826)
Sequence (P10826 183-417 limits assumed): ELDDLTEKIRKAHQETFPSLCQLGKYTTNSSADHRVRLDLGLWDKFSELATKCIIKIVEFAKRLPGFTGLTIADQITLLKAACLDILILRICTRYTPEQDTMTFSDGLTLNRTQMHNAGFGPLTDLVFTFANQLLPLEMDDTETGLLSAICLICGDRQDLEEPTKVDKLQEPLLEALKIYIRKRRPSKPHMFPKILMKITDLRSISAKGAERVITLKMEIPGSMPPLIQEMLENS
Assay: chimeric receptor transactivation assay
Type: cell-based
Conditions: value in parentheses
measurement label: RAR (EFFICACY) β

[[record]]
line_notation = "CC1(C)CCC(=O)c2ccc(C#Cc3ccc(CC(=O)O)cc3)cc21"
measurement_label = "RAR (EFFICACY) β"
readout_value = "(36)"

[[record]]
line_notation = "CCc1cc(C#Cc2ccc(C(=O)O)cc2)ccc1C1(OCc2ccccc2)CC1"
measurement_label = "RAR (EFFICACY) β"
readout_value = "(39)"

[[record]]
line_notation = "CCCNC1(c2ccc(C#Cc3ccc(C(=O)O)cc3)cc2)CC1"
measurement_label = "RAR (EFFICACY) β"
readout_value = "(36)"

[[record]]
line_notation = "CC1(C)CC2(CC2)Oc2ccc(C#Cc3ccc(C(=O)O)cc3)cc21"
measurement_label = "RAR (EFFICACY) β"
readout_value = "(126)"

[[record]]
line_notation = "Cc1cc(C#Cc2ccc(C(=O)O)cc2)ccc1C1(OCC(C)(C)C)CC1"
measurement_label = "RAR (EFFICACY) β"
readout_value = "(50)"

[[record]]
line_notation = "COC1(c2ccc(C#Cc3ccc(C(=O)O)cc3)cc2)CC1"
measurement_label = "RAR (EFFICACY) β"
readout_value = "(50)"

[[record]]
line_notation = "Cc1cc(C#Cc2ccc(C(=O)O)cc2)ccc1C1(OCc2ccccc2)CC1"
measurement_label = "RAR (EFFICACY) β"
readout_value = "(80)"

[[record]]
line_notation = "CCCN(CCC)C1(c2ccc(C#Cc3ccc(C(=O)O)cc3)cc2)CC1"
measurement_label = "RAR (EFFICACY) β"
readout_value = "(44)"

[[record]]
line_notation = "CC(C)OC1(c2ccc(C#Cc3ccc(C(=O)O)cc3)cc2)CC1"
measurement_label = "RAR (EFFICACY) β"
readout_value = "(39)"

